Reference source for all entries: patent US20230322846A9

Molecular target: human GABAA receptors composed of the α1β2γ2 subunits (Homo sapiens (Human), UniProt P14867+P18507+P47870)
Sequence (P14867 28-456 limits assumed): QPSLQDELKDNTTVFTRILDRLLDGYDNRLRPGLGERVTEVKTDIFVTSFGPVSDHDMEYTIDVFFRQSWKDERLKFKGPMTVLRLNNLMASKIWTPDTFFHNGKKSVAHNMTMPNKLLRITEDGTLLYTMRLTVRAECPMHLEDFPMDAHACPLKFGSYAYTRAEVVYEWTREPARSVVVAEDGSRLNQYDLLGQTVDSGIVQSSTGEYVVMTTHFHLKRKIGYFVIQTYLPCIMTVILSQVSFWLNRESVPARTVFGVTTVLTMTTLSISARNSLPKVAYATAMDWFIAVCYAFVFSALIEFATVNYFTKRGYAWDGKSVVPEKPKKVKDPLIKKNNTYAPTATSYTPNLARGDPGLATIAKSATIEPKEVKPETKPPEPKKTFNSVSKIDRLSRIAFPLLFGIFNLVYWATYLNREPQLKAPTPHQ
Sequence (P47870 25-512 limits assumed): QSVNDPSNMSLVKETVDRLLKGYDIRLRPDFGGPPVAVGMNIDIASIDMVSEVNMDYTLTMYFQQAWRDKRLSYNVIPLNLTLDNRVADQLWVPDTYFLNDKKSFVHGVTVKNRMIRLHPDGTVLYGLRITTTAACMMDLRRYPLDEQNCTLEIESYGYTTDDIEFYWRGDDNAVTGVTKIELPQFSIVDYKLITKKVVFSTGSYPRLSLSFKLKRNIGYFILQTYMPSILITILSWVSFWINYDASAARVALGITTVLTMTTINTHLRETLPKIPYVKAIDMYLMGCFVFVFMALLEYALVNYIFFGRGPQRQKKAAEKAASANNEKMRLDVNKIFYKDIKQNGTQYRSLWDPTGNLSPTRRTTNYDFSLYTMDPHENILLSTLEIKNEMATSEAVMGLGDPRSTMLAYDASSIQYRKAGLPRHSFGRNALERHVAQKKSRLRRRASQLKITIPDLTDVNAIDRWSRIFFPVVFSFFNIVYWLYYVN
Sequence (P18507 40-475 limits assumed): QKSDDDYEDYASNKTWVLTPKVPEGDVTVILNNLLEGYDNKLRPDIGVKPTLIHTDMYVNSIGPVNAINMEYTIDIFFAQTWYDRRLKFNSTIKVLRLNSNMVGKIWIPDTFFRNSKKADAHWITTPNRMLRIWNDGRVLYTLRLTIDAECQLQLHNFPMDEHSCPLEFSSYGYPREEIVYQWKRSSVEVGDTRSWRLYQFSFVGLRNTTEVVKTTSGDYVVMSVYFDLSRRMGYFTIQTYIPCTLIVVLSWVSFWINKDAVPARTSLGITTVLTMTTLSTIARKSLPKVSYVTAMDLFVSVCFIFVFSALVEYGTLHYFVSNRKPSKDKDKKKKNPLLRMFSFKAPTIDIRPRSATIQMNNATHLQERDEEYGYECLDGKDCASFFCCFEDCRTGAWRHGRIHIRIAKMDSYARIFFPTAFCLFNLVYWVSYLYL
Assay: α1β2γ2 SyncroPatch automated patch clamp assay
Details: HEK cells, potentiation of submaximal GABA current, clamped at −120 mV
Experimental: The SyncroPatch 384PE (Nanion, Germany) automated patch clamp platform was used to obtain recordings from human embryonic kidney cells stably expressing human GABAA receptors composed of the α1β2γ2 and α4β3δ subunits. […] Compound effect was determined by dividing peak current amplitude after GABA+compound by peak current amplitude after GABA alone. EC50 and Emax values were determined from average values for each concentration.
EC50 by entry:

[
  {
    "SMILES_TEXT": "COC[C@@]1(O)CC[C@H]2[C@H](CC[C@@H]3[C@@H]2CC[C@]2(C)[C@@H]([C@@H](C)Nc4ccc(C#N)cn4)CC[C@@H]32)C1",
    "EC50": "≥ 1000 nM"
  },
  {
    "SMILES_TEXT": "CCCC[C@@]1(O)CC[C@H]2[C@H](CC[C@@H]3[C@@H]2CC[C@]2(C)[C@@H]([C@@H](C)Cn4cc(C#N)cn4)CC[C@@H]32)C1",
    "EC50": "< 200 nM"
  },
  {
    "SMILES_TEXT": "C[C@@H](Cn1cc(C#N)cn1)[C@H]1CC[C@H]2[C@@H]3CC[C@@H]4C[C@@](O)(CC5CC5)CC[C@@H]4[C@H]3CC[C@]12C",
    "EC50": "< 200 nM"
  },
  {
    "SMILES_TEXT": "CCOC[C@@]1(O)CC[C@H]2[C@H](CC[C@@H]3[C@@H]2CC[C@]2(C)[C@@H]([C@H](CC)Cn4ccc(C#N)n4)CC[C@@H]32)C1",
    "EC50": "< 200 nM"
  },
  {
    "SMILES_TEXT": "CCOC[C@@]1(O)CC[C@H]2[C@H](CC[C@@H]3[C@@H]2CC[C@]2(C)[C@@H]([C@H](Cn4cc(C#N)cn4)C(F)(F)F)CC[C@@H]32)C1",
    "EC50": "200 to 1000 nM"
  },
  {
    "SMILES_TEXT": "C[C@@H](Cc1nc(C(F)(F)F)cs1)[C@H]1CC[C@H]2[C@@H]3CC[C@@H]4C[C@](C)(O)CC[C@]4(C)[C@H]3CC[C@]12C",
    "EC50": "200 to 1000 nM"
  },
  {
    "SMILES_TEXT": "C[C@@H](Cn1cc(C#N)cn1)[C@H]1CC[C@H]2[C@@H]3CC[C@@H]4C[C@@](O)(C5CC5)CC[C@@H]4[C@H]3CC[C@]12C",
    "EC50": "< 200 nM"
  },
  {
    "SMILES_TEXT": "CCC[C@@]1(O)CC[C@H]2[C@H](CC[C@@H]3[C@@H]2CC[C@]2(C)[C@@H]([C@H](C)Cn4nnnc4C)CC[C@@H]32)C1",
    "EC50": "< 200 nM"
  },
  {
    "SMILES_TEXT": "CCOC[C@@]1(O)CC[C@H]2[C@H](CC[C@@H]3[C@@H]2CC[C@]2(C)[C@@H]([C@H](C)Cn4cc(C#N)cn4)CC[C@@H]32)C1",
    "EC50": "200 to 1000 nM"
  },
  {
    "SMILES_TEXT": "C[C@@H](Cc1ccc(C(F)(F)F)nc1)[C@H]1CC[C@H]2[C@@H]3CC[C@@H]4C[C@](C)(O)CC[C@@H]4[C@H]3CC[C@]12C",
    "EC50": "< 200 nM"
  },
  {
    "SMILES_TEXT": "CCC[C@@]1(O)CC[C@H]2[C@H](CC[C@@H]3[C@@H]2CC[C@]2(C)[C@@H]([C@@H](C)Cn4cc(C#N)cn4)CC[C@@H]32)C1",
    "EC50": "≥ 1000 nM"
  },
  {
    "SMILES_TEXT": "Cc1cnc(C[C@H](C)[C@H]2CC[C@H]3[C@@H]4CC[C@@H]5C[C@](C)(O)CC[C@@H]5[C@H]4CC[C@]23C)s1",
    "EC50": "200 to 1000 nM"
  },
  {
    "SMILES_TEXT": "CC[C@@]1(O)CC[C@H]2[C@H](CC[C@@H]3[C@@H]2CC[C@]2(C)[C@@H]([C@@H](C)Cn4ccc(C#N)n4)CC[C@@H]32)C1",
    "EC50": "< 200 nM"
  },
  {
    "SMILES_TEXT": "CCC[C@@]1(O)CC[C@@]2(COC)[C@H](CC[C@H]3[C@@H]4CC[C@H]([C@H](C)Cn5nnc(C)n5)[C@@]4(C)CC[C@@H]32)C1",
    "EC50": "200 to 1000 nM"
  },
  {
    "SMILES_TEXT": "CCC[C@@]1(O)CC[C@H]2[C@H](CC[C@@H]3[C@@H]2CC[C@]2(C)[C@@H]([C@H](C)Cn4nnc(C)n4)CC[C@@H]32)C1",
    "EC50": "≥ 1000 nM"
  },
  {
    "SMILES_TEXT": "CCOC[C@@]1(O)CC[C@@]2(C)[C@H](CC[C@@H]3[C@@H]2CC[C@]2(C)[C@@H]([C@H](C)Cn4ccc(C#N)n4)CC[C@@H]32)C1",
    "EC50": "< 200 nM"
  },
  {
    "SMILES_TEXT": "CCOC[C@@]1(O)CC[C@H]2[C@H](CC[C@@H]3[C@@H]2CC[C@]2(C)[C@@H]([C@@H](C)Nc4cccc(N5CCCC5=O)n4)CC[C@@H]32)C1",
    "EC50": "200 to 1000 nM"
  },
  {
    "SMILES_TEXT": "CCC[C@@]1(O)CC[C@H]2[C@@H](CC[C@@H]3[C@@H]2CC[C@]2(C)[C@@H]([C@@H](C)Cn4nnnc4C)CC[C@@H]32)C1",
    "EC50": "< 200 nM"
  },
  {
    "SMILES_TEXT": "Cc1cnc(C[C@H](C)[C@H]2CC[C@H]3[C@@H]4CC[C@@H]5C[C@](C)(O)CC[C@@H]5[C@H]4CC[C@]23C)cn1",
    "EC50": "< 200 nM"
  },
  {
    "SMILES_TEXT": "CCOC[C@@]1(O)CC[C@H]2[C@H](CC[C@@H]3[C@@H]2CC[C@]2(C)[C@@H]([C@H](Cn4nnc(C)n4)C(F)(F)F)CC[C@@H]32)C1",
    "EC50": "≥ 1000 nM"
  }
]
